Values compiled from ChEMBL document CHEMBL3991601.

- test_target: STE20-like serine/threonine-protein kinase (Homo sapiens, UniProt Q9H2G2); note: in the data inactive means no Kd found up to 30 µM
- Sequence (Q9H2G2 whole entry): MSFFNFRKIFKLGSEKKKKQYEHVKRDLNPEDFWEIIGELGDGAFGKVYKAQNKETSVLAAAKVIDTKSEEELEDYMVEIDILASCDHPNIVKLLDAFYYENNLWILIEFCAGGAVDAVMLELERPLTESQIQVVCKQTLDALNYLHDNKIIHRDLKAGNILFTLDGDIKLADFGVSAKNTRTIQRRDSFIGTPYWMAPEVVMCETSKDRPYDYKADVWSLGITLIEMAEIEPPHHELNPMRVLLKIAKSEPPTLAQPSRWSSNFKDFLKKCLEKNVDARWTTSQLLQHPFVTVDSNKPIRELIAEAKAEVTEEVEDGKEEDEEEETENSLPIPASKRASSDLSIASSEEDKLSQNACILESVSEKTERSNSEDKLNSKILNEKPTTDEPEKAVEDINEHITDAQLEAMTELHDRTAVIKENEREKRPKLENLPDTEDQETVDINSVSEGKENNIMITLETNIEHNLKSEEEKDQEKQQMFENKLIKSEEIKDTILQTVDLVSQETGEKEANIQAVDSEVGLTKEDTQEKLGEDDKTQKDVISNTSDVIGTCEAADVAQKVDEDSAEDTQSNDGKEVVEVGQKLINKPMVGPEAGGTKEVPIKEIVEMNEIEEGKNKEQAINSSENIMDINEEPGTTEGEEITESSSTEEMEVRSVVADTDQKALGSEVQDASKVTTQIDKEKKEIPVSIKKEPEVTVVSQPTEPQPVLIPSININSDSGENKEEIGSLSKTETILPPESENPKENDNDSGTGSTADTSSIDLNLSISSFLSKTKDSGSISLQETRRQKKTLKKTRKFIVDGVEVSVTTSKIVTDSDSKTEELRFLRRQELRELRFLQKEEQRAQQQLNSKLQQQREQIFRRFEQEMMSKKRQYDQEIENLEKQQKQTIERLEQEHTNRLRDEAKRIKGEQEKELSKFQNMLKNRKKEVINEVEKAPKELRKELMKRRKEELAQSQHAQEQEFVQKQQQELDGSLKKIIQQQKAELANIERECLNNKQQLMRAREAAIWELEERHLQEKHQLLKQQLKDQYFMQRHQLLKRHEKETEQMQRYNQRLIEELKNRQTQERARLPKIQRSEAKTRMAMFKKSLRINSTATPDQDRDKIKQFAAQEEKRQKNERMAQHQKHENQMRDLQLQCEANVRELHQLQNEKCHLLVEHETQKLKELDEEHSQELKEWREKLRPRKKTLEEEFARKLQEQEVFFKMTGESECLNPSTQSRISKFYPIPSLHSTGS
Calls of active or inactive are those of the source.
Pick one: True = active, False = inactive

item_smiles | group
CNC(=O)c1nn(C)c2c1C(C)(C)Cc1cnc(Nc3ccc(N4CCN(C)CC4)cc3)nc1-2 | False
CO[C@H]1C[C@@H]2CC[C@@H](C)[C@@](O)(O2)C(=O)C(=O)N2CCCC[C@H]2C(=O)O[C@H]([C@H](C)C[C@@H]2CC[C@@H](OP(C)(C)=O)[C@H](OC)C2)CC(=O)[C@H](C)/C=C(\C)[C@@H](O)[C@@H](OC)C(=O)[C@H](C)C[C@H](C)/C=C/C=C/C=C/1C | False
CC(C)(C)c1nc(-c2cccc(NS(=O)(=O)c3c(F)cccc3F)c2F)c(-c2ccnc(N)n2)s1 | False
Cc1cnc(NC(=O)Nc2cc(Br)c(C)cc2OC[C@@H]2CNCCO2)cn1 | False

Enquiry: Which outcome did this test record for the molecule CC(C)c1cc(CNc2nc(Nc3cc(C4CC4)[nH]n3)cc(N3CCN(C)CC3)n2)on1 ?
Return: True

Enquiry: Give the logged outcome of this assay for the following molecule: C[C@H]1CNCCCN1S(=O)(=O)c1cccc2cncc(F)c12
Return: False

Enquiry: Look up the recorded call for COCC(=O)NC/C=C/c1ccc2ncnc(Nc3ccc(Oc4ccc(C)nc4)c(C)c3)c2c1 in this test.
Return: False

Enquiry: Would you mind telling me which call this test gave C[C@@H](Oc1cc(C(=O)Nc2ccc(C(=O)N3CCN(C)CC3)cc2)nnc1N)c1c(Cl)ccc(F)c1Cl ?
Return: False

Enquiry: Call for entry CCn1c(C(=O)N(C2CC2)C2CC2)cc2c3c(ncn3C)c(Nc3cc(C)n(C)n3)nc21 :
Return: False

Enquiry: Tell me the assay call for CO[C@H]1C[C@@H]2CC[C@@H](C)[C@@](O)(O2)C(=O)C(=O)N2CCCC[C@H]2C(=O)O[C@H]([C@H](C)C[C@@H]2CC[C@@H](OC(=O)C(C)(CO)CO)[C@H](OC)C2)CC(=O)[C@H](C)/C=C(\C)[C@@H](O)[C@@H](OC)C(=O)[C@H](C)C[C@H](C)/C=C/C=C/C=C/1C please.
Return: False

Enquiry: Outcome logged for C[C@@H](N)c1ccc(C(=O)Nc2ccnc3[nH]ccc23)cc1 in this assay:
Return: False

###

- test_target: Phosphorylase b kinase gamma catalytic chain, liver/testis isoform (Homo sapiens, UniProt P15735); note: in the data inactive means no Kd found up to 30 µM
- Sequence (P15735 whole entry, canonical isoform): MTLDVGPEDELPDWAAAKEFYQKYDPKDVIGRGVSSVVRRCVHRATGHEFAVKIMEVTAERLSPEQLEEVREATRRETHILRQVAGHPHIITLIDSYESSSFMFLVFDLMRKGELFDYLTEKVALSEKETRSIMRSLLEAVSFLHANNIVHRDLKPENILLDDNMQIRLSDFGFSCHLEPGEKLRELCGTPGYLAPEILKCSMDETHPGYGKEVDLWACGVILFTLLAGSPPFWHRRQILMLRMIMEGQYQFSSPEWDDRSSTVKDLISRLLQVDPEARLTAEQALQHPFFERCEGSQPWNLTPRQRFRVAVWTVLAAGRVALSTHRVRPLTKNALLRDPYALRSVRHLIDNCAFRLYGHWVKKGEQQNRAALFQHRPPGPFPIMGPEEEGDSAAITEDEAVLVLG
Activity calls are given as the source filed them.
Classes to choose from: true (active), false (inactive)

compound | group
C[C@@H](Oc1cc(C(=O)Nc2ccc(C(=O)N3CCN(C)CC3)cc2)nnc1N)c1c(Cl)ccc(F)c1Cl | false
O=c1[nH]ccc2cc(OC3CCNCC3)ccc12 [SAR-407899 FREE BASE] | false
COc1ncc(-c2ccc3nccc(-c4ccnnc4)c3c2)cc1NS(=O)(=O)c1ccc(F)cc1F | false
CO[C@H]1C[C@@H]2CC[C@@H](C)[C@@](O)(O2)C(=O)C(=O)N2CCCC[C@H]2C(=O)O[C@H]([C@H](C)C[C@@H]2CC[C@@H](O)[C@H](OC)C2)CC(=O)[C@H](C)/C=C(\C)[C@@H](O)[C@@H](OC)C(=O)[C@H](C)C[C@H](C)/C=C/C=C/C=C/1C | false
CCCCCCCCCCCCCCCCCCOP(=O)([O-])OC1CC[N+](C)(C)CC1 | false

Enquiry: Each compound tested received a call. Report the one for CC(C)(C)c1nc(-c2cccc(NS(=O)(=O)c3c(F)cccc3F)c2F)c(-c2ccnc(N)n2)s1 .
Return: false

Enquiry: Assay result, entry Cc1nc(Nc2n[nH]c3c2CN(C(=O)N[C@H](CN(C)C)c2ccccc2)C3(C)C)c2sccc2n1 — outcome?
Return: true

Enquiry: Fill in: this test's call for COc1c(OCCCN2CCOCC2)ccc2c1N=C(NC(=O)c1cnc(N)nc1)N1CCN=C21 is ___
Return: false

Enquiry: For N#CC1(c2ccc(NC(=O)c3cccnc3NCc3ccncc3)cc2)CCCC1 , what call appears in the results of this test?
Return: false

Enquiry: For C[C@@H](N)c1ccc(C(=O)Nc2ccnc3[nH]ccc23)cc1 , what call appears in the results of this test?
Return: false

Enquiry: GET /call?item= CCOc1cc2ncc(C#N)c(Nc3ccc(F)c(Cl)c3)c2cc1NC(=O)/C=C/CN(C)C returns the recorded outcome of this test.
Return: false
